Record form. Attribute: CTLA4 MFI at 33.3 nM. Fill in for each entry.
- Subject Of Test: huCTLA4 (Homo sapiens, UniProt P16410)
- Sequence (P16410 36-223): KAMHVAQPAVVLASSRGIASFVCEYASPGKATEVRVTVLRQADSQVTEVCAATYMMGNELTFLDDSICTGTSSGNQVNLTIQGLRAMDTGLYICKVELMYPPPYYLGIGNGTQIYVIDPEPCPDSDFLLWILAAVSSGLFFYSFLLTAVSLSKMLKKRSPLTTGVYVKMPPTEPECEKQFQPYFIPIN
- Assay Text: Flow binding to CHO cells stably expressing CTLA4
- Set-up: huCTLA4 and huPD-L1, full-length mammalian surface expression constructs were generated; expressed in transfected cells; host or cells: CHO cells, lentiviral transduction, sorted to >98% purity
- Condition Parameters: Table E10; 33.3 nM; CHO cells stably expressing CTLA4
- Procedure: Binding of selected immunomodulatory fusion proteins to cognate binding partners was assessed. […] Cells were sorted in a Bio-Rad S3 Cell Sorter (Bio-Rad Corp., USA) to >98% purity. […] For staining and analysis by flow cytometry, 100,000 cells of appropriate transfected cells were plated in 96-well round bottom plates. […] Cells were then washed twice with 150 μL/well stain buffer, fixed in 2% formaldehyde/PBS, and analyzed on Intellicyt flow cytometer (Intellicyt Corp., USA). […]
# respond with the number and nothing more

Name the recorded CTLA4 MFI at 33.3 nM of the item E35D/D46E/L85M (protein) VIHVTKEVKEVATLSCGHNVSVEELAQTRIYWQKDKKMVLTMMSGEMNIWPEYKNRTIFDITNNLSIVILALRPSDEGTYECVVMKYEKDAFKREHLAEVTLSVKAD in your answer. 30289

Name the recorded CTLA4 MFI at 33.3 nM of the item E35D/M47V/L85M/R94Q (protein) VIHVTKEVKEVATLSCGHNVSVEELAQTRIYWQKDKKMVLTMMSGDVNIWPEYKNRTIFDITNNLSIVILALRPSDEGTYECVVMKYEKDAFKQEHLAEVTLSVKAD in your answer. 23334

Name the recorded CTLA4 MFI at 33.3 nM of the item E35D/M47V/I61V/L85M (protein) VIHVTKEVKEVATLSCGHNVSVEELAQTRIYWQKDKKMVLTMMSGDVNIWPEYKNRTIFDVTNNLSIVILALRPSDEGTYECVVMKYEKDAFKREHLAEVTLSVKAD in your answer. 28848

Name the recorded CTLA4 MFI at 33.3 nM of the item Q27L/E35D/M47V/I61V/L85M (protein) VIHVTKEVKEVATLSCGHNVSVEELALTRIYWQKDKKMVLTMMSGDVNIWPEYKNRTIFDVTNNLSIVILALRPSDEGTYECVVMKYEKDAFKREHLAEVTLSVKAD in your answer. 27881
